Recorded Endpoint: Ki (nM)
Kindly provide the numeric value in nM only, without the unit symbol.

Give Ki; test system UniProtKB P31652; compound CCOc1ccccc1O[C@H](c1ccc(I)cc1)[C@H]1CNCCO1
Sequence (P31652 whole entry): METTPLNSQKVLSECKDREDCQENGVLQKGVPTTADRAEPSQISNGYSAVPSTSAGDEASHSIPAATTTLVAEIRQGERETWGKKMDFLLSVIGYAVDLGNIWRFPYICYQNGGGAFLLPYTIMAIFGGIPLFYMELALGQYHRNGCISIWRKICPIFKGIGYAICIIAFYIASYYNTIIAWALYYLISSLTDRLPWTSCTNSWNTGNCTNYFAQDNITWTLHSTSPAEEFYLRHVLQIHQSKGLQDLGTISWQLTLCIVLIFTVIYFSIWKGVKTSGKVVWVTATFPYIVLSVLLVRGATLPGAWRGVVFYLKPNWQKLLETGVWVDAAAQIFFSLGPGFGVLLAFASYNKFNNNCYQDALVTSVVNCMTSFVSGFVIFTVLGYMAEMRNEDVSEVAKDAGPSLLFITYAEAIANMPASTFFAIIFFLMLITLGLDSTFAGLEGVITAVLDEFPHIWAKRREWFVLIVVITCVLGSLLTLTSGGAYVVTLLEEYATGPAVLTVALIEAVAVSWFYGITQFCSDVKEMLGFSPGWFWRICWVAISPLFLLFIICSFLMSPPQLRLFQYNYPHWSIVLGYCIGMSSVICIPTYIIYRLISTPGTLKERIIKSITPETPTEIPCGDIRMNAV
646
